Each record here notes measured neut IC50 (ug/ml) subtype A (graham).
molecular target: RSV F on RSV subtype A virus (RSV-A2) (Respiratory Syncytial Virus, subtype A, …, UniProt P03420 26-574); assay: cell-based or functional assay
Your answer should be a plain number; it is taken to be in µg/mL.

binder="ADI-20975 (antibody, V domains shown) VH: QVQLVESGTHVKKPGASVKVSCEASDDTFNNKGIVWVRQAPGQGLEWMGWIRPNNGNTKYAQKFQGRVTMTTDASTNTAYMELRSLRSGDTAVYYCAREQFKWNDFYFDYWGQGILVTVSS VL: SYELMQPPSVSVAPGQTATITCGGSNIGSETVHWYQQKPGQAPVLVVHDDTDRPSGIPERFSGSNSGNTATLTISGVEAGDEADFYCQVRDSRTDDVVFGGGTKLTVL" readout_name="neut IC50 (ug/ml) subtype A (graham)" measured_number=0.05
binder="ADI-14583 (antibody, V domains shown) VH: QVQLVQSGAEVKEPGASVKVSCKASGYTFTNYGISWVRQAPGQGLEWLGWISAYNGNIHYAQKVQGRVTMTTDTSTSTGFMELRSLRSDDTAVYYCAREPPVIAAGDFQHWGQGTLVTVSS VL: ETTLTQSPLSLPVTLGQPASISCRSSQSLVHSNGNTYLSWFQQRPGQSPRRLIYRVSNRDSGVPDRFSGSGSGTDFTLKISRVEAEDVGLYYCMQGTHWPPDFGQGTRLEIK" readout_name="neut IC50 (ug/ml) subtype A (graham)" measured_number=0.05
binder="ADI-20964 (antibody, V domains shown) VH: QVQLVQSGAEVKKPGASVKVSCKASGYTFTHYGISWVRQAPGQGLEWMGWISAYNGNTNYAQKLQGRVTMTTDTSTSTAYMEVRSLRYDDTAVYYCARDVPVEAATSPEFWGQGTLVTVSS VL: DIVMTQTPLSLPVTLGQPASISCRSSQSLVYSDGNTYLSWFQQRPGQSPRRLIYKVSNRDSGVPNRFSGSGSGTDFTLKISRVEAEDVGVYYCVQNTHWPAYTFGQGTKVEIK" readout_name="neut IC50 (ug/ml) subtype A (graham)" measured_number=0.06
binder="ADI-14405 (antibody, V domains shown, also called Ab 71; Antibody Number 71) VH: QVQLVQSGTEVKKPGASVKVSCKASGYTFTNYDISWVRQAPGQGLEWMGWISGSTGNTIYAQNLQGRLTMTTDTSTSTAYMELRSLRSDDTAIYYCARDNVGYASGNYFDYWGQGTLVTVSS VL: SYVLTQPPSVSVAPGKTARIPCGGNNIGSKSVHWYQQRPGQAPVLVIYYDSVRPSGIPERFSGSNSGNTATLTISTVEAGDEADFYCQVWDSSRDHEVFGGGTKLTVL" readout_name="neut IC50 (ug/ml) subtype A (graham)" measured_number=0.04
binder="ADI-20998 (antibody, V domains shown) VH: QVQLVQSGGGVVQPGRSLRLSCAASGFTLSTYGMHWVRQAPGKGLEWVAVIYYDESNKFYADSVQGRFTISRDDSKNTLFLQMNSLRAEDTAVYYCARESRPRGYSYSDFDSWGQGTLVTVSS VL: QPGLTQPRSVSGSPGQSVTISCTGTSSDVGTFNYVSWYQQHPGKAPKLMIYDVNQRPSGVPDRFSGSKSGNTASLTISGLQAEDEADYYCCAYAGYYSFGGGTKLTVL" readout_name="neut IC50 (ug/ml) subtype A (graham)" measured_number=0.03

Record ADI-20974 (antibody, V domains shown) VH: EVQLVESGGGLVKPGGSLRLSCAASGFSFSSYQINWVRQAPGKGLEWVSSISGGSSYTDYADSIKGRFTISRDNAKKSAFLQMKSLRADDTAVYYCARALMATAGGLAFDIWGQGTMVTVSS VL: QPVLTQPPSVSGAPGQRVTISCTGSGSNIGAGYDVHWYQQVPGTAPKLLILRNTNRPSGVPDRFSGSKSGTSASLAITGLQAEDEADYYCQSYDRSLSVVFGGGTKLTVL . Reported neut IC50 (ug/ml) subtype A (graham): 0.003

The binder listed as ADI-14334 (antibody, V domains shown) VH: EVQLVESGGGLVKPGGSLRLSCAASGVTVSSYYMTWVRQAPGKGLEFISDISSSSTYTNYADSVKGRFTISRDNAKSSLYLQMNNLRAEDTAVYYCARLGITVTGVGYFDLWGRGTLVTVSS VL: QPGLTQPPSVSGAPGQRVTISCTGSSSNIGAGYDVHWYQQLPGTAPKLLIHDNNNRPSGVPDRFSGSKSGTSASLAITGLQVEDEADYYCQSYDSSLSNYVFGTGTKLTVL shows neut IC50 (ug/ml) subtype A (graham) equal to 0.05
